- TARGET_SYSTEM: T1, human GIP receptor (human, UniProt P48546 22-466)
- T1 sequence (looked up): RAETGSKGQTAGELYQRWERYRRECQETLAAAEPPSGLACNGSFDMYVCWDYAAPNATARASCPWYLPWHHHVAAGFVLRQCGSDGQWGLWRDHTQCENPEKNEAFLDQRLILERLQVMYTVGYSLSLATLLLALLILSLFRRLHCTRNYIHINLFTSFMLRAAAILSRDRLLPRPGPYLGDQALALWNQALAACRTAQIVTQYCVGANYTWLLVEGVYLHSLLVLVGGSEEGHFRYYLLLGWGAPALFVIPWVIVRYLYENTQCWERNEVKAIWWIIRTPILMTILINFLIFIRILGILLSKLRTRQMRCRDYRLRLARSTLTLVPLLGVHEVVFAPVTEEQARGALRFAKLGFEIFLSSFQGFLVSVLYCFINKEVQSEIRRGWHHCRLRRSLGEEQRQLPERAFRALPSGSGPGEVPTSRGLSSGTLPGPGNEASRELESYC
- TEST_METHOD_NOTES: cell-based or functional assay
*1 amine or outer side, *2 acyl side, *3 side chain or, on linkers, in order; H or OH if unused. Where no end group is shown, it is not given here. Side-chain parts run from the residue outwards. [ ]: non-standard residue; d: D form. The star is where a group is joined. C18 diacid = O=C(O)CCCCCCCCCCCCCCCCC(=O)*; C16 diacid = O=C(O)CCCCCCCCCCCCCCC(=O)*; γGlu = O=C(O)[C@H](CCC(=O)[*:2])N[*:1]; pGlu = O=C1CC[C@@H](C(=O)O)N1; AEEA = NCCOCCOCC(=O)O
Recorded measurements of DiscoveRx cAMP antagonism log IC50, one per entry
Reply with the number and its unit after it.

>  <BINDER>
[pGlu]GTFISDYSIAMDRIK([AEEA-AEEA-γGlu-C16 diacid])QQDFVNWLLAQR-NH2 [AT379]

>  <READOUT_VALUE>
-8.1 log M

$$$$
>  <BINDER>
EGTFISDYSIAMDRIK([AEEA-γGlu-C16 diacid])QQDFVNWLLAQR-NH2 (not fully specified (residue 1)) [AT373]

>  <READOUT_VALUE>
-8 log M

$$$$
>  <BINDER>
EGTFISDYSIAMDRIK([AEEA-AEEA-AEEA-γGlu-C18 diacid])QQDFVNWLLAQR-NH2 (not fully specified (residue 1)) [AT378]

>  <READOUT_VALUE>
-7.8 log M

$$$$
>  <BINDER>
[pGlu]GTFISDYSIAMDRIK(C18 diacid)QQDFVNWLLAQR-NH2 [AT391]

>  <READOUT_VALUE>
-8 log M

$$$$

According to the records, this binder EGTFISDYSIAMDRIK([AEEA-AEEA-γGlu-C16 diacid])QQDFVNWLLAQR-NH2 (not fully specified (residue 1)) [AT374] displays DiscoveRx cAMP antagonism log IC50 of -7.9 log M
